Attribute: IC50
Target: USP30 (Homo sapiens (Human), UniProt Q70CQ3)
Sequence (Q70CQ3 whole entry): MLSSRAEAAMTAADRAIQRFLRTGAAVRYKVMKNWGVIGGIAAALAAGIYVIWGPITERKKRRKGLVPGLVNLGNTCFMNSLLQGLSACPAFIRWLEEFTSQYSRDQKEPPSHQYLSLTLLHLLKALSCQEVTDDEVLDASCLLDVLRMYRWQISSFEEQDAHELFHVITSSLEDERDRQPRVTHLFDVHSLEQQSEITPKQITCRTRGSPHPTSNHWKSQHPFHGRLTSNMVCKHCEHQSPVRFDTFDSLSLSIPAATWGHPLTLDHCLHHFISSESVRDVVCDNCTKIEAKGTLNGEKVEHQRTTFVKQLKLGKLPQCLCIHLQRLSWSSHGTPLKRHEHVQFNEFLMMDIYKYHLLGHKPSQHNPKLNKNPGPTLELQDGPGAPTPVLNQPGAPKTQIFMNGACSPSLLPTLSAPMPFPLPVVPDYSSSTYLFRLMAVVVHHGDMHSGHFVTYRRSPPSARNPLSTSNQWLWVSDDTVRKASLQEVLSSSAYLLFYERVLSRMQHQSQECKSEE
Assay: Dundee MALDI-TOF mass spectrometry assay (IC50)
Type: biochemical
Conditions: USP30 25 ng/μl, K48-linked diubiquitin 5.6 μM, avg, read-out: Dundee IC50 μM (avg in vitro MS assay)

Solved cases below.
- C[C@@H](NS(=O)(=O)c1ccc(NC(=O)[C@H](Cc2ccccc2)NC(=O)c2ccc(F)cc2)cc1)C1CC1: < 0.05 µM
- O=C(N[C@@H](Cc1ccccc1)C(=O)Nc1ccc(S(=O)(=O)NCCO)cc1)c1ccc(F)cc1: < 0.05 µM
- CC(C)(C)NS(=O)(=O)c1ccc(NC(=O)[C@H](Cc2c[nH]c3ccccc23)NC(=O)c2ccc(F)cc2)cc1: 0.05 to 1 µM

-- ask For the compound COCCNS(=O)(=O)c1ccc(NC(=O)[C@H](Cc2ccccc2)NC(=O)c2ccc(F)cc2)cc1 , what IC50 is on record?
-- reply < 0.05 µM

-- ask Quick one: O=C(NC1(C(=O)Nc2ccc(S(=O)(=O)NC34CC(C3)C4)cc2)Cc2ccccc2C1)c1ccc(F)cc1
-- reply 0.05 to 1 µM

-- ask Field entry: CC(C)(C)NS(=O)(=O)c1ccc(NC(=O)[C@H](Cc2ccccc2)NC(=O)c2ccc(F)cc2)nc1
-- reply < 0.05 µM

-- ask Follow-up item: CC(C)(C)NS(=O)(=O)c1ccc(NC[C@H](O)[C@H](Cc2ccccc2)NC(=O)c2ccc(F)cc2)cc1
-- reply 1 to 10 µM

====

Target: USP30 (Homo sapiens (Human), UniProt Q70CQ3)
Test: Dundee MALDI-TOF mass spectrometry assay (IC50)
Assay type: biochemical
Conditions: USP30 25 ng/μl, K48-linked diubiquitin 5.6 μM, avg, read-out: Dundee IC50 μM (avg in vitro MS assay)
metric: IC50

* CC(C)(C)NS(=O)(=O)c1ccc(NC(=O)[C@H](Cc2ccccc2)NC(=O)c2ccc(F)cc2)s1 [Compound I-63] | 0.05 to 1 µM
* CC(C)(C)NS(=O)(=O)c1ccc(NC(=O)[C@H](Cc2ccccc2)NC(=O)c2ccc(F)cc2)c(F)c1 [Compound I-158] | < 0.05 µM
* CCNS(=O)(=O)c1ccc(NC(=O)[C@H](Cc2ccccc2)NC(=O)c2ccc(F)cc2)cn1 [Compound I-105] | 0.05 to 1 µM
* O=C(N[C@@H](Cc1ccccc1)C(=O)Nc1ccc(S(=O)(=O)NCCN2CCOCC2)cn1)c1ccc(F)cc1 [Compound I-122] | 0.05 to 1 µM
* CCNS(=O)(=O)N1CCCc2c(NC(=O)[C@H](Cc3ccccc3)NC(=O)C3CCCCC3)cccc21 [Compound I-126] | 1 to 10 µM

-- ask Endpoint output: IC50 of CC(C)(C)NS(=O)(=O)c1ccc(NC(=O)[C@H](Cc2ccccc2)N2Cc3ccccc3C2=O)cc1 [Compound I-69] . Value?
-- reply 1 to 10 µM

-- ask Same for CC(C)(C)NS(=O)(=O)c1ccc(NC(=O)C2Cc3cnccc3CN2C(=O)c2ccc(F)cc2)cc1 (stereo not shown) [Compound I-50]
-- reply 1 to 10 µM

====

// reported IC50 per item
Molecular target: USP30 (Homo sapiens (Human), UniProt Q70CQ3)
Assay: Dundee MALDI-TOF mass spectrometry assay (IC50)
Format: biochemical
Details: USP30 25 ng/μl, K48-linked diubiquitin 5.6 μM, avg, read-out: Dundee IC50 μM (avg in vitro MS assay)

Please review the following examples before continuing.
• CN(C(=O)c1ccc(F)cc1)[C@@H](Cc1ccccc1)C(=O)Nc1ccc(S(=O)(=O)NC2COC2)cc1 [Compound I-70] = 1 to 10 µM
• COc1cc(S(=O)(=O)NC2COC2)ccc1NC(=O)[C@H](Cc1ccccc1)NC(=O)c1ccc(F)cc1 [Compound I-144] = 0.05 to 1 µM
• CC(C)(CN1CCOCC1)NS(=O)(=O)c1ccc(NC(=O)[C@H](Cc2ccccc2)NC(=O)c2ccc(F)cc2)cc1 [Compound I-162] = < 0.05 µM
• CC(C)(C)NS(=O)(=O)c1ccc(NC(=O)C2(NC(=O)c3ccc(F)cc3)CC2c2ccccc2)cc1 (racemic) [Compound I-83] = > 1 µM
• COCC(C)(C)NS(=O)(=O)c1ccc(NC(=O)[C@H](Cc2ccccc2)NC(=O)c2ccc(F)cc2)cc1OC [Compound I-149] = < 0.05 µM

-- ask Name the reported IC50 value associated with the compound O=C(N[C@@H](Cc1ccccc1)C(=O)Nc1ccc(S(=O)(=O)NCCCN2CCOCC2)nc1)c1ccc(F)cc1 [Compound I-112]
-- reply 0.05 to 1 µM

-- ask Can you handle CCNS(=O)(=O)c1ccc(NC(=O)[C@H](Cc2ccccc2)NC(=O)c2ccc(F)cc2)cc1F [Compound I-155] next?
-- reply < 0.05 µM

-- ask Same again, this time with CC(C)(C)NS(=O)(=O)c1ccc(NC(=O)[C@H](Cc2ccccc2)NC(=O)c2ccc(F)cc2)cc1F [Compound I-156]
-- reply < 0.05 µM

-- ask # iterate: CCNS(=O)(=O)c1ccc(NC(=O)[C@H](Cc2cccnc2)N(C)C(=O)c2ccc(F)cc2)cc1 [Compound I-90]
-- reply > 10 µM

-- ask And the next one, O=C(N[C@@H](Cc1ccccc1)C(=O)Nc1ccc(S(=O)(=O)NC2CC2)cc1)c1ccc(F)cc1 [Compound I-6] ?
-- reply < 0.05 µM

-- ask Do the same for CC(C)(C)NS(=O)(=O)c1ccc(NC(=O)[C@H](Cc2ccccc2)NC(=O)c2ccc(F)cc2)cn1 [Compound I-62] please
-- reply < 0.05 µM

-- ask Let us now turn to O=C(N[C@@H](Cc1ccccc1)C(=O)Nc1ccc(S(=O)(=O)NC23CC(C2)C3)cc1)c1ccc(F)cn1 [Compound I-73]
-- reply < 0.05 µM

-- ask Item: CCNS(=O)(=O)c1cccc2c(NC(=O)[C@H](Cc3ccccc3)NC(=O)c3ccc(F)cc3)cccc12 [Compound I-125]
-- reply < 0.05 µM

-- ask Then what about the compound CCC(C)(C)NS(=O)(=O)c1ccc(NC(=O)[C@H](Cc2ccccc2)NC(=O)c2ccc(F)cc2)cc1 [Compound I-24] ?
-- reply < 0.05 µM
